assay: Toxicity liver stage against HepG2, at 10uM; type: cell-based; set-up: test concentration 10 uM, cell line HepG2-A16-CD81EGFP; details: human, HepG2-A16-CD81EGFP cells; read-out: INHIBITION
cytotoxicity at 10 µM values for the compounds below.
Report the value in % with no unit label.

Answered examples (6):
{"compound": "CC(C)n1cc(S(=O)(=O)N2CCCCC2)cn1", "cytotoxicity at 10 µM (%)": 2.53}
{"compound": "CCNC(=O)Cc1ccc(-c2cccc3c2CCNC3)cc1", "cytotoxicity at 10 µM (%)": 13.6}
{"compound": "CCCn1nccc1NC(=O)CN1CCOC(Cn2cc(C)cn2)C1 (stereo not given)", "cytotoxicity at 10 µM (%)": 1.88}
{"compound": "O=C(N1CCCC1)N1CCCC(c2nccn2Cc2ccncc2)C1 (stereo not given)", "cytotoxicity at 10 µM (%)": 8.2}
{"compound": "COCCN1CC[C@]2(CN(Cc3cccnc3)C[C@H]2C)C1=O", "cytotoxicity at 10 µM (%)": -4.66}
{"compound": "Cc1ccc(NC(=O)CCc2ccco2)cc1N1CCOC1=O", "cytotoxicity at 10 µM (%)": -8.43}

Now look at this entry.
[in] Find the recorded cytotoxicity at 10 µM belonging to O=C1NC2(Cc3ccccc31)CN(CC1CCCC1)C2 and report it.
[out] 7.58
